Please provide measured Primary assay EC50 (cAMP), GIP-R, first run for the entries that follow.
- targetUnderTest: T1, glucose-dependent insulinotropic peptide (gastric inhibitory polypeptide) receptor (GIPR) (human, UniProt P48546 22-466)
- T1 sequence (looked up): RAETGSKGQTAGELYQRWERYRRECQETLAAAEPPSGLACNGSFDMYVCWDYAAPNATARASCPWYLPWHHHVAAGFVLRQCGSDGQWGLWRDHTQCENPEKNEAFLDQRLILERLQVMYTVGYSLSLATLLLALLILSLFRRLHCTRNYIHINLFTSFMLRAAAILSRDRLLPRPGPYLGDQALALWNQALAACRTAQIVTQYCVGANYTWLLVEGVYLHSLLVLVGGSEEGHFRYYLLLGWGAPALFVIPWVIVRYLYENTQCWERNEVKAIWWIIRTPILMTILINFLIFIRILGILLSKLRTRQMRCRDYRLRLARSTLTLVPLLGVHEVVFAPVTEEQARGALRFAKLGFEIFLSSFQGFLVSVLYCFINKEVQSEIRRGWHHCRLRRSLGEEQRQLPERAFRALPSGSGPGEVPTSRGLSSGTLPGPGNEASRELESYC
- assayText: cell-based or functional assay
Non-standard residues stand in square brackets, D forms with d. Groups on a side chain read outwards from the residue. Primed or numbered codes have the meaning given here. No end group written: not given here. *: point of attachment. Dodecylbenzoate = dodecylbenzoyl lipid group; Stearoyl = CCCCCCCCCCCCCCCCCC(=O)*; αMeF = C[C@](N)(Cc1ccccc1)C(=O)O; αMeK = C[C@](N)(CCCCN)C(=O)O; Lauroyl = CCCCCCCCCCCC(=O)*; αMeS = C[C@](N)(CO)C(=O)O; PEG2′ = not defined here; Aib = CC(C)(N)C(=O)O; Ahx = NCCCCCC(=O)O
Answer format: number, then unit.

These recorded examples may help you get a feel for the data.
H[Aib]EGS[αMeF]TSDV[αMeS]S[αMeF]LEGEAA[αMeK]E[αMeF]IA[αMeF]VVK([PEG2′-PEG2′-Lauroyl])GG-NH2 [SEQ ID NO 171] ... 27 nM
H[Aib]EGS[αMeF]TSDV[αMeS]S[αMeF]LEGEAAK([PEG2′-PEG2′-Stearoyl])E[αMeF]IA[αMeF]VV[αMeK]GG-NH2 [SEQ ID NO 162] ... 26 nM
H[Aib]EGS[αMeF]TSDV[αMeS]S[αMeF]LEGEAA[αMeK]E[αMeF]IA[αMeF]VVK([Ahx-Ahx-Ahx-Dodecylbenzoate])GG-NH2 [SEQ ID NO 178] ... 26 nM
H[Aib]EGS[αMeF]TSDV[αMeS]S[αMeF]LEGEAA[αMeK]E[αMeF]IA[αMeF]VVK([PEG2′-PEG2′-PEG2′-Stearoyl])GG-NH2 [SEQ ID NO 190] ... 26 nM

Return reported Primary assay EC50 (cAMP), GIP-R, first run values for all items listed beneath this line.
1. H[Aib]EGS[αMeF]TSDV[αMeS]S[αMeF]LEGEAAK([PEG2′-Stearoyl])E[αMeF]IA[αMeF]VV[αMeK]GG-NH2 [SEQ ID NO 161]
2. H[Aib]EGS[αMeF]TSDV[αMeS]S[αMeF]LEGEAA[αMeK]E[αMeF]IA[αMeF]VVK([PEG2′-PEG2′-Stearoyl])GG-NH2 [SEQ ID NO 198]
3. H[Aib]EGS[αMeF]TSDV[αMeS]S[αMeF]LEGEAA[αMeK]E[αMeF]IA[αMeF]VVK([Ahx-Dodecylbenzoate])GG-NH2 [SEQ ID NO 176]
4. H[Aib]EGS[αMeF]TSDV[αMeS]S[αMeF]LEGEAAK([PEG2′-PEG2′-Stearoyl])E[αMeF]IA[αMeF]VV[αMeK]GG-NH2 [SEQ ID NO 153]
5. H[Aib]EGS[αMeF]TSDV[αMeS]S[αMeF]LEGEAA[αMeK]E[αMeF]IA[αMeF]VVK([PEG2′-Dodecylbenzoate])GG-NH2 [SEQ ID NO 179]

Reply |
1: 27 nM; 2: 26 nM; 3: 27 nM; 4: 27 nM; 5: 27 nM

Data provenance: patent US20200079833A1
